These measurements were taken from the supplement of paper PMC12855868.

B1: library; numbered along this chain (parent)
chain: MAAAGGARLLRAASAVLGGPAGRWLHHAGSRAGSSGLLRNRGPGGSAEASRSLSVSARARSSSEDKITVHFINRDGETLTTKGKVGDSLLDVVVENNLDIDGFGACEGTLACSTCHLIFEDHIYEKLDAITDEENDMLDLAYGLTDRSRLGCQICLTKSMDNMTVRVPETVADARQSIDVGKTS

# Variants of: B1
# Protocol details: scaled log2 fold change in cell abundance, elesclomol vs control (0 = silent mean, 1 = nonsense mean) (scaled log2 ratio); higher = higher viability under elesclomol (loss of FDX1 cuproptosis function);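 further: variant abundance is its share of total variant reads in each endpoint sample, from next-generation sequencing of the integrated ORF PCR-amplified out of genomic DNA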
# Cond: with HEK293T FDX1 KO; elesclomol 40 nM; glucose 10 mM; 11 days
Label scheme for scaled log2 fold change: lower than -0.005 is class 0, -0.005 and above is class 1.

stdin: Tell me whether scaled log2 fold change is at least -0.005 here: `A49K`
stdout: class 0

stdin: Entry `D91Y` : is its scaled log2 fold change no less than -0.005?
stdout: class 1

stdin: Given the entry `D101E` , answer whether its scaled log2 fold change meets or surpasses -0.005.
stdout: class 0

stdin: Kindly determine if scaled log2 fold change recorded for `T109A` is above or exactly -0.005.
stdout: class 1

stdin: Quick check, scaled log2 fold change >= -0.005? `E64I`
stdout: class 1

stdin: Threshold query (scaled log2 fold change >= -0.005) on `R58P`
stdout: class 1

stdin: Item `G6N` with scaled log2 fold change of -0.005 or above?
stdout: class 1

stdin: Entry `Y142G` : is its scaled log2 fold change no less than -0.005?
stdout: class 0

stdin: Does `D146P` have a reported scaled log2 fold change of at least -0.005?
stdout: class 1

stdin: Can `L17K` be said to have scaled log2 fold change at or above -0.005?
stdout: class 0

stdin: Threshold query (scaled log2 fold change >= -0.005) on `T164F`
stdout: class 0

stdin: Assess whether reported scaled log2 fold change for `L127G` sits at -0.005 or higher.
stdout: class 0

stdin: Is it the case that `R149H` has scaled log2 fold change reaching or exceeding -0.005?
stdout: class 1

stdin: Is scaled log2 fold change at least -0.005? Consider `N73Q`
stdout: class 1

stdin: Check the entry `V92C` : does scaled log2 fold change equal or exceed -0.005?
stdout: class 0

stdin: Textbook exercise: given the entry `T164M` , state whether its scaled log2 fold change is greater than or equal to -0.005.
stdout: class 0

stdin: Hi team, for `D139Q` , is the recorded scaled log2 fold change at or above -0.005?
stdout: class 1

stdin: Would you say `P43G` shows scaled log2 fold change at minimum -0.005?
stdout: class 1

stdin: Determine whether this variant has scaled log2 fold change no lower than -0.005: `K84V`
stdout: class 0

stdin: Could you tell me if the measured scaled log2 fold change of `C106A` reaches -0.005 or more?
stdout: class 1

stdin: Confirm if scaled log2 fold change reported for the variant `A105Q` is -0.005 or above.
stdout: class 1
